# protein stability index values compiled below
B1: FBXO39 (parent)
chain: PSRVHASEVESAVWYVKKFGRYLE

- Variants of: B1
- Protocol: protein stability index of a GFP-peptide fusion (GPS, HEK-293T) (PSI 1-6); higher = more stable;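 further: lentivirally expressed fusions sorted by FACS into six bins by GFP to DsRed ratio, PSI derived from sequencing read proportions per bin multiplied by bin number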
- Measurement setup: c terminus: a fixed tail appended
Observation type: protein stability index

Mutation code: S2K
Reading: 2.67
//
Mutation code: V16M
Reading: 2.65
//
Mutation code: W14Q
Reading: 2.87
//
Mutation code: S2E
Reading: 2.29
//
Mutation code: R3L
Reading: 1.72
//
Mutation code: G20E
Reading: 2.95
//
Mutation code: P1C
Reading: 1.82
//
Mutation code: Y22A
Reading: 2.39
//
Mutation code: K17T
Reading: 1.77
//
Mutation code: Y22E
Reading: 2.58
//
Mutation code: R3G
Reading: 2.29
//
Mutation code: R21N
Reading: 2.3
//
Mutation code: E8D
Reading: 2.08
//
Mutation code: H5W
Reading: 2.86
//
Mutation code: P1F
Reading: 1.66
//
Mutation code: K18P
Reading: 2.07
//
Mutation code: H5A
Reading: 2.11
//
Mutation code: R3S
Reading: 2.1
//
Mutation code: E24G
Reading: 1.94
//
Mutation code: E24Q
Reading: 1.99
//
Mutation code: W14M
Reading: 3.3
//
Mutation code: S7T
Reading: 1.77
